The values you see were collected from ChEMBL document CHEMBL1201862.

# System: OVCAR-5
# method.summary: NCI tumour cell line growth inhibition, 48 h
Calls of active or inactive are those of the source. Rule as the data show it: active = GI50 up to about 1.1 µM and inactive = higher.
reported.property: GI50

Entry CCCCCNC(=O)CCCCCCCCCCCNC(=O)CCCCCCCCCCN1C=CC(=CC=C2C=CC(=O)C=C2)C=C1 , system OVCAR-5: what GI50 was measured?
> 100 µM (inactive)

----------
# System: OVCAR-4
# method.summary: NCI tumour cell line growth inhibition, 48 h
The source made the active and inactive calls. Cut-off read from the data, not from the text of the source: active = GI50 up to about 1.1 µM and inactive = higher.
Log the outcome using a class from active, inactive

Previously resolved entries follow.
| compound | category |
| --- | --- |
| C[N+](C)(C)CC(=O)N/N=C(\C(=O)Nc1ccc(Cl)cc1)C1C(=O)N(c2ccccc2)N=C1N (stereo unspecified) | inactive |
| O=C(c1ccccc1)C1C(c2ccccc2[N+](=O)[O-])N1C1CCCCC1 (stereo unspecified) | inactive |
| CCOC(=O)c1c(-c2ccc(Cl)cc2)c(C#N)c(=S)n(C2OC(COC(C)=O)C(OC(C)=O)C(OC(C)=O)C2OC(C)=O)c1C (stereo unspecified) | inactive |
| Nc1c(Br)cc(-c2cc(Br)c(N)c(Br)c2)cc1Br | inactive |
| CO/N=C(/C(=O)N(C(=O)/C(=N/OC)c1csc(NC(c2ccccc2)(c2ccccc2)c2ccccc2)n1)n1cnn(CC(=O)OC(C)(C)C)c1=O)c1csc(NC(c2ccccc2)(c2ccccc2)c2ccccc2)n1 | inactive |
| CCOc1cc(NC(C)=O)ccc1C(=O)NN1C(=O)C(Oc2ccccc2)C1c1ccc(O)c(OC)c1 (stereo unspecified) | inactive |
| CSC(=Nc1nnc(-c2ccc([N+](=O)[O-])cc2)s1)SC | inactive |
| c1ccc(CCCNc2nnnc3ccccc23)cc1 | inactive |

Please let me know the test result on file for NC(=O)CSc1c2cc(O)ccc2nc2ccc(O)cc12 .
inactive

Please let me know the test result on file for Cc1cc(S(=O)(=O)Nc2nc(N)n[nH]2)c(SCC(=O)O)cc1Cl .
inactive

Please let me know the test result on file for N/C(=N\Nc1ccc(Cl)cc1)c1cnccn1 .
inactive

Please let me know the test result on file for Cc1nc(C(N)=S)sc1C(=O)CC(=O)C(=O)Nc1nc2ccccc2[nH]1 .
inactive

Please let me know the test result on file for NCCCCCCn1c(-c2ccc(Br)cc2)cs/c1=N\c1ccccc1 .
inactive

Please let me know the test result on file for O=C1C(=O)N(C(=O)c2ccc(Cl)c(Cl)c2)c2ccc(Cl)cc21 .
inactive

Please let me know the test result on file for O=C(Cc1ccc(Cl)c(Cl)c1)NCC1(N2CCCCC2)CCCCC1 .
inactive

Please let me know the test result on file for C[N+](C)(CCNC(=O)c1cccc2cc3ccccc3nc12)Cc1ccc([N+](=O)[O-])cc1 .
inactive

----------
Known GI50 of a selection of compounds
# Tested on: OVCAR-3
# method.summary: NCI tumour cell line growth inhibition, 48 h
Calls of active or inactive are those of the source. No stated cut-off is given here; in the data, active = GI50 up to about 1.1 µM and inactive = higher.

// known answers, use as guide
| compound | GI50 |
| --- | --- |
| N#C/C(=C\c1ccc(O)c(O)c1)C(N)=O | 28.2 µM (inactive) |
| CC(C)(C)[C@H]1CO[C@]2(c3ccccc3)[C@@H]3C[C@@H]3C(=O)N12 | > 100 µM (inactive) |
| Nc1cc(S(N)(=O)=O)ccc1SSc1ccc(S(N)(=O)=O)cc1N | > 100 µM (inactive) |
| O=S(=O)(O)c1cc(S(=O)(=O)O)c2c(/N=N/c3ccc(S(=O)(=O)O)c4ccccc34)c(O)ccc2c1 | > 100 µM (inactive) |

With those in mind, consider the next compound.
Need GI50 of C[C@@H](NC(C#N)c1ccco1)c1ccccc1 (stereo not given in full) , thanks.
> 100 µM (inactive)
